Target: UniProt P34972
Sequence (P34972 whole entry): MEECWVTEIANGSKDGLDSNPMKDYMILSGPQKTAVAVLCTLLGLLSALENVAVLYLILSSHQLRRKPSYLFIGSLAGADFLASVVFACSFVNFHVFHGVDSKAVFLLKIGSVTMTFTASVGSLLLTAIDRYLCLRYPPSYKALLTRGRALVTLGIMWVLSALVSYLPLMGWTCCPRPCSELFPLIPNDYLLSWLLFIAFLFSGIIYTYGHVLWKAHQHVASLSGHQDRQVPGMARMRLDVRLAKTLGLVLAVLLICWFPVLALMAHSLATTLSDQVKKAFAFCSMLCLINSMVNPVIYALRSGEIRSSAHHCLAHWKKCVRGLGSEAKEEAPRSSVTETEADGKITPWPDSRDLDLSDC
Assay: cell-based
Can you tell me pEC50 for the items I'm about to list?
Would you please state pEC50, meaning minus log10 of the concentration in mol/L, as a bare number?

Input: Recorded pEC50 of CCN(CC)c1ccc(CN(Cc2cc(OC)c(OC)c(OC)c2)S(=O)(=O)c2cccs2)cc1 , please.
Output: 5.16

Input: Recorded pEC50 of CCN(CC)c1ccc(CN(Cc2cc(OC)c(OC)c(OC)c2)S(=O)(=O)/C=C/c2ccccc2)cc1 , please.
Output: 5.82

Where these numbers come from: paper PMC8247115
